These data points were gathered from patent US9074002B2.

Biological target: T1, PTP1B-OX (Homo sapiens, UniProt P18031)
T1 construct: made in house; host or cells: E. coli BL21 (pET19b)
T1 sequence (P18031 3-277): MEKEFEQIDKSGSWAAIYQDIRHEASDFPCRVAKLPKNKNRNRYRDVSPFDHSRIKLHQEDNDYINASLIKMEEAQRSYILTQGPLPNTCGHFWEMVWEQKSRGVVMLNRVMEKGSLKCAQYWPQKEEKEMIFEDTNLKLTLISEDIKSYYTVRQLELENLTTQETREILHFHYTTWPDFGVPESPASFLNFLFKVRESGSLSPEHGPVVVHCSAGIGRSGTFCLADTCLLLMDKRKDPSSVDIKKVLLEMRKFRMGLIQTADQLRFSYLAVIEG
Assay: In vitro binding assay, purified recombinant PTP1B (37 kDa) and purified scFv, Ni-NTA pull down
Details: purified proteins, scFv in molar excess, 2 hours at 4° C.; FIG. 9
Observed Property: binding to PTP1B-OX in vitro

Molecule: scFv105: scFv, SEQ ID NO: 132 (protein) scFv: MKKTAIAIAVALAGFATVAQAALTQPSSVSANPGEAVKITCSGSSGSYGWYQQKSPGSAPVTVIYYNDKRPSDIPSRFSGSTSGSTSTLTITGVQAEDEAVYFCGGYDSNYLGIFGAGTTLTVLGQSSRSSAVTLDESGGGLQTPRGALSLVCKASGFTFSSYSMAWVRQAPGKGLEFVAGIQNDGSITDYGSAVDGRATISRDDGQSTVRLQLNNLRTEDTATYYCAKTTVADGVIGAYGIDAWGHGTEVIVSSTSGQAGQHHHHHHGAYPYDVPDYAS
Observed Property: binding to PTP1B-OX in vitro
Assay Result: no significant binding

Molecule: scFv24: scFv, SEQ ID NO: 57 (protein) scFv: MKKTAIAIAVALAGFATVAQAAVSASPGDTVKITCSGGNSSYGYGWYQQKSPGSAPVSVIYYNDERPSDIPSRFSGSASGSTATLTITGVQADDEAVYYCGNADSSTYAGIFGAGTTLTVLGQSSRSSAVTLDESGGGLQTPGGGLSLVCKASGFDFSTNAMGWVRQAPGKGLEWVAGISGSGSSTWYATAVKGRATISRDNGQSTVRLQLNNLRAEDTGTYYCTKYVGDYYWYIDAGSIDAWGHGTEVIVSSTSGQAGQHHHHHHGAYPYDVPDYAS
Observed Property: binding to PTP1B-OX in vitro
Assay Result: no significant binding

Molecule: scFv28: scFv, truncated sequence, SEQ ID NO: 61 (protein) scFv: MKKTAIAIAVALAGFATVAQAAVIYSNDERPSDIPSRFSGSTSGSTSTLTITGVQADDEAVYFCGSADSSTYAGIFGAGTTLTVLGQSSRSSAVTLDESGGGLQTPGGALSLVCKASGFTFSSFNMFWVRQAPGRGLEFVAGITSSGGSTYYGTAVKGRATISRDNGQSTVRMQLNNLRAEDTGTYFCARGAYDYYFYWNYAGTIDAWGHGTEVIVSSTSGQAGQHHHHHHGAYPYDVPDYAS
Observed Property: binding to PTP1B-OX in vitro
Assay Result: no significant binding
